Test system: SR leukemia
Assay: NCI tumour cell line growth inhibition, 48 h; in the data active = GI50 below about 0.43 µM; inactive = the rest
The categories you may choose from are active, inactive

Look over these answered cases.
CCN(Cc1ccc(OC)cc1)c1ccc(CO)c(Cl)c1
inactive
COC(=O)[C@@H](C)C[C@H](Cc1ccccc1)NC(=O)c1nc([C@@H](C[C@H](C(C)C)N(C)C(=O)[C@@H](NC(=O)[C@H]2C[C@H](O)CCN2C)C(C)C)OC(C)=O)sc1C(C)C
active
CC(C)=CC[C@@H]1CC2(CC=C(C)C)C(=O)C(OC3(C(=O)c4ccccc4)C(=O)C4(CC=C(C)C)C[C@@H](CC=C(C)C)C(C)(C)C(CC=C(C)C)(C4=O)C3=O)(C(=O)c3ccccc3)C(=O)C(CC=C(C)C)(C2=O)C1(C)C (stereo not given in full)
inactive
COc1cc2c(c3oc(-c4ccc(O)cc4)c(O)c(=O)c13)CCC(C)(C)O2
active
Cc1cccc2cc(/C=C/C(=O)/C=C/c3ccc(Cl)cc3)c(=O)[nH]c12
inactive
COc1ccc(C2=NN(C(N)=S)C(c3ccc4c(c3)OCO4)C2)cc1 (stereo not given)
inactive
O=C1NC(=O)C(c2c[nH]c3ccccc23)=C1c1c[nH]c2ccccc12
inactive
O=c1[nH]c2ccccc2n1C1CCNCC1
inactive
CC1=C(CCCOC(=O)[C@H](N)CC(C)C)C2=C(C)C3(CC3)[C@@](C)(O)C(=O)C2=C1
inactive
Cn1cc(C2=C(c3ccsc3)C(=O)NC2=O)c2ccccc21
inactive

# lookup: test call for `O=C(O)c1ccc(N(/C=C/C(=O)C(F)(F)F)Cc2ccc(Cl)cc2)cc1`
inactive

# lookup: test call for `COc1ccc(-c2nc3sc(-c4cc(OC)c(OC)c(OC)c4)nn3c2/C=C2/C(=O)Nc3ccc(F)cc32)cc1`
inactive

# lookup: test call for `ClC1=C(Cl)C(Cl)(C2(Cl)C(Cl)=C(Cl)C(Cl)=C2Cl)C(Cl)=C1Cl`
active

# lookup: test call for `Sc1cccc2cccnc12`
active

# lookup: test call for `COc1cc(/C=C/C(=O)c2cccc(-n3cc(-c4ccccc4)[nH]c3=O)c2)cc(OC)c1OC`
inactive

# lookup: test call for `C=CCc1cccc(C=O)c1O`
inactive

# lookup: test call for `O=C(CCCc1ccc(N(CCCl)CCCl)cc1)NCc1ccccc1`
inactive

# lookup: test call for `CC(=O)/C(=C\c1ccc(Cl)cc1)c1ccccc1`
active

# lookup: test call for `O=C1C=C(Nc2ccccc2)c2ccccc2C1=O`
inactive

# lookup: test call for `O=C([CH-]C(=O)c1ccccc1)c1ccccc1.O=C([CH-]C(=O)c1ccccc1)c1ccccc1.O=C([CH-]C(=O)c1ccccc1)c1ccccc1.[Ga+3]`
inactive

###

Tested on: SF-268 CNS
Test: NCI tumour cell line growth inhibition, 48 h
Examples of compounds with documented TGI follow.

O=C1NN2CC(c3ccccc3)=NN=C2c2ccccc21
82.3 µM
CC(C)(C)CC(C)(C)c1ccc(OCCO)cc1
27.3 µg/mL
CN1CCN(Cn2nc(COc3ccccc3Cl)n(/N=C/c3ccc(-c4ccc(Cl)cc4Cl)o3)c2=S)CC1
> 100 µM
Sc1cccc2cccnc12
13.5 µM
NS(=O)(=O)c1ccc(NC(=S)NC(=O)Nc2ccc(Cl)c(Cl)c2)cc1
32.3 µM

Here is the next item to consider.
Query: TGI; subject: `COc1cc2cc(NCc3cccc(Cl)c3)nc(C)c2cc1OC`
23.9 µM

Sourced from PubChem BioAssay (NCI)
